Tested on: PC26
Procedure summary: qHTS profiling for inhibitors of Plasmodium falciparum proliferation (AID 504749); also: nearly all actives have a fitted effect of over 60% in size
Setup conditions: P. falciparum in erythrocytes, SYBR Green DNA, 72 h; series mostly up to 28.7 µM
Results filed as inconclusive are left out. The source made the active and inactive calls. Calls follow the shape of the dose curve; as a rule, active = well fitted inhibition curve with a large enough effect; inconclusive = small, poorly fitted or top-dose-only effect; inactive = flat fitted curve, though single readings scatter.
Please reply with one of these outcomes: Yes (active), No (inactive)

INPUT: Tell me the assay call for COCCCCC(=NOCCN)c1ccc(C(F)(F)F)cc1 please.
OUTPUT: Yes

INPUT: Outcome? CCOC(=O)O[C@]1(C(=O)OCCl)CC[C@@H]2[C@H]3CCC4=CC(=O)C=C[C@]4(C)[C@@H]3[C@@H](O)C[C@@]21C
OUTPUT: No

INPUT: Test call for this compound, please: O=C(O)c1cc(-c2ccccc2)nc2ccccc12
OUTPUT: No

INPUT: For this compound, state the assay outcome: CC(=O)N[C@@H](CS)C(=O)O
OUTPUT: No

INPUT: Please state the recorded outcome for this compound: C[C@@H](O)[C@H]1C(=O)N2C(C(=O)O)=C(S[C@@H]3CN[C@H](C(=O)N(C)C)C3)[C@H](C)[C@H]12
OUTPUT: No

INPUT: Give the logged outcome of this assay for the following compound: NC(N)=Nc1nc(CSCC/C(N)=N/S(N)(=O)=O)cs1
OUTPUT: No

INPUT: Please let me know the test result on file for CCN(CC)CCOC(=O)c1ccc(N)cc1 .
OUTPUT: No

INPUT: Lab log entry: Cc1cccc(C)c1OCC(C)N (stereo not drawn) — outcome as called in the assay?
OUTPUT: No

INPUT: Outcome? CCCNC(=O)NS(=O)(=O)c1ccc(Cl)cc1
OUTPUT: No

INPUT: For this compound, state the assay outcome: CCN(CC)CCNC(=O)c1ccc(N)cc1
OUTPUT: No

INPUT: // outcome(item) with item = COc1ccccc1N1CCN(CCCNc2cc(=O)n(C)c(=O)n2C)CC1
OUTPUT: No

INPUT: // return assay outcome for O=C1NCC2(CCN(CCc3ccccc3)CC2)O1
OUTPUT: No

INPUT: Recorded call for Cc1cnc(C(=O)O)c[n+]1[O-] ?
OUTPUT: No

----------
Procedure summary: qHTS assay for measurement of the activity of small molecule inhibitors on Zika virus induced Caspase-3 activity in human iPSC derived neural progenitor cells (hNPCs) (AID 1224857); also: nearly all actives have a fitted effect of over 65% in size
Setup conditions: hNPCs ZIKV-induced caspase-3/7, Caspase-Glo luminescence, 6 h; series mostly up to 45.7 µM
Inconclusive results are not listed. Calls of active or inactive are those of the source. Calls come from the whole dose curve; as a rule, active = well fitted inhibition curve with a large enough effect; inconclusive = small, poorly fitted or top-dose-only effect; inactive = no such curve, though single readings can be large or run the other way.
Give one outcome, nothing more. List: YES (active), NO (inactive)

Solved cases (4 shown):
COCCOC(=O)C1=C(C)NC2=C(C(=O)CC(c3ccccc3OC)C2)C1c1cccc(O)c1 (stereo not given) | NO
NC(=O)c1cccc(-c2cc(Nc3ccc(OC(F)(F)F)cc3)ncn2)c1 | NO
O=c1cc(CN2CCOCC2)occ1OCCCCCSc1ccnc2cc(C(F)(F)F)ccc12 | NO
CCc1ccc(C=C2SC(=S)NC2=O)cc1 | YES

Next:
INPUT: Write down the call the test reported for this compound. Item: NS(=O)(=O)c1ccc(NC2=CC(=O)c3ccccc3C2=O)cc1
OUTPUT: NO

----------
List of Z-AUC values.
Procedure summary: qHTS drug screen for cell cycle checkpoint inhibitors in PARPi-resistant BRCA-mutant ovarian cancer cell lines. (AID 1963452)
Setup conditions: PEO1/OlaR viability, CellTiter-Glo luminescence, 96 h; stronger effect = lower value
Give your answer as a number; write no unit.

A selection of reference data follows.
COc1ccc2cc(-c3nc(-c4ccc(S(C)=O)cc4)[nH]c3-c3ccncc3)ccc2c1 (centres undefined) | -0.0857
CN(C)Cc1ccc(-c2nc3cccc4c3n2CCNC4=O)cc1 | 0.426
O=C(Nc1cccc(Br)c1)c1cccc(S(=O)(=O)N2CCCCCC2)c1 | -0.479
O=C(O)c1ccccc1C(=O)Nc1ccc(-c2ccccc2)cc1 | 1.24
O=C(Nc1ccccc1Br)N[C@@H]1CCN(c2ccc(C(F)(F)F)cn2)C1 | -0.871

INPUT: Name the recorded Z-AUC for O=C(CCCCCCC(=O)Nc1ccccc1)NO .
OUTPUT: -0.11

INPUT: Which Z-AUC is reported for this molecule? c1ccc2c(-c3cnn4cc(-c5ccc(N6CCNCC6)cc5)cnc34)ccnc2c1
OUTPUT: -0.163

----------
Procedure summary: Quantitative High-Throughput drug screen in 47 multiple myeloma cell lines against the NCATS MIPE library collection: OPM1_PLB cell viability assay (AID 1918989); also: nearly all actives have a fitted effect of over 40% in size
Setup conditions: CellTiter-Glo, 48 h; series mostly up to 45.8 µM
Records with an inconclusive call do not appear. Active and inactive are the calls of the source. Calls come from the whole dose curve; as a rule, active = well fitted cell-killing curve with a large enough effect; inconclusive = small, poorly fitted or top-dose-only effect, or effect the other way; inactive = no such curve, though single readings can be large or run the other way.
Respond only with the outcome that fits, drawn from Y for active, N for inactive

O=c1cc(-c2ccccc2)oc2cc(O)cc(O)c12 | N
CN1[C@@H]2CCC[C@@H]1CC(NC(=O)c1nn(C)c3ccccc13)C2 (some centres undefined) | N
COc1ccc2cc(-c3nc(-c4ccc(S(C)=O)cc4)[nH]c3-c3ccncc3)ccc2c1 (centres undefined) | Y

INPUT: Check the results log: what was the call for NC(=O)c1cccc(-c2cc(Nc3ccc(OC(F)(F)F)cc3)ncn2)c1 ?
OUTPUT: Y

----------
Procedure summary: qHTS to identify inhibitors of the type 1 interferon - major histocompatibility complex class I in skeletal muscle: primary screen against the NCATS LOPAC collection (AID 1347405);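 also: human myoblasts with HiBiT tag on endogenous HLA-B stimulated by IFN-beta; lytic HiBiT luminescence reporting HLA-B protein level; % is scaled to controls: 0 for no effect and ±100 for the full control effect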
Setup conditions: iHSKM muscle cells, IFN-b-induced MHC-I HiBiT luminescence, 24 h; series mostly up to 45.9 µM
Records with an inconclusive call do not appear. Activity calls are given as the source filed them. The call rests on the fitted dose curve; in most records, active means well fitted inhibition curve with a large enough effect; inconclusive means small, poorly fitted or top-dose-only effect; inactive means flat fitted curve, though single readings scatter.
Recorded endpoint: outcome

O=C(NCCN1CCOCC1)c1ccc(Cl)cc1 | inactive
CCn1cc(C(=O)O)c(=O)c2ccc(C)nc21 | inactive
Clc1ccc(Cn2c(CN3CCCC3)nc3ccccc32)cc1 | inactive

----------
Procedure summary: qHTS Assay for Identification of Small Molecule Antagonists for NFkB Signaling Pathway. (AID 624479);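 also: pathway stimulated with TNF alpha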; also: potency is read from the fitted curve at half-maximal effect
Setup conditions: NFkB pathway reporter cell assay, antagonist mode; series mostly up to 38.3 µM
The source made the active and inactive calls. The call rests on the fitted dose curve.
Recorded endpoint: Potency

O=C1Nc2ccc(Cl)cc2C(C#CC2CC2)(C(F)(F)F)O1 (centres undefined) | 30.6 µM (active)
COc1cc2ncnc(-n3nc(-c4ccccn4)nc3N)c2cc1OC | 1.88 µM (active)
O=C(O)c1ccc(-c2cc3cccnc3c(-c3ccc4nonc4c3)n2)cc1 | inactive
O=C(CCCCCCC(=O)Nc1ccccc1)NO | inactive

----------
Procedure summary: Quantitative High-Throughput drug screen in 47 multiple myeloma cell lines against the NCATS MIPE library collection: Karpas620_DSMZ cell viability assay (AID 1918959); also: nearly all actives have a fitted effect of over 30% in size
Setup conditions: Karpas620 myeloma viability, CellTiter-Glo ATP luminescence, 48 h; series mostly up to 45.8 µM
Results filed as inconclusive are left out. The source made the active and inactive calls. Calls follow the shape of the dose curve; as a rule, active = well fitted cell-killing curve with a large enough effect; inconclusive = small, poorly fitted or top-dose-only effect, or effect the other way; inactive = no such curve, though single readings can be large or run the other way.
Answer with one of the outcomes y = active, n = inactive

Observe how each entry below is paired with its result.
COc1ccc(C2CC(c3ccccc3)=NN2c2ccc(S(N)(=O)=O)cc2)cc1 (stereo not drawn) | y
CCCCCNC(=O)N1CCC(CN(Cc2ccc(Cl)cc2)Cc2ccc([N+](=O)[O-])s2)C1 (stereo not drawn) | y
COc1ccc(-c2coc3cc(O)cc(O)c3c2=O)cc1 | y
O=c1c(-c2ccc(O)cc2)coc2cc(O[C@@H]3O[C@H](CO)[C@H](O)[C@H](O)[C@H]3O)ccc12 | n
Cn1cc(C=C2C(=O)Nc3cccnc32)c2ccccc21 | n
CN(C)Cc1ccc(-c2nc3cccc4c3n2CCNC4=O)cc1 | y
CC(=O)O[C@]1(C(C)=O)CC[C@@H]2[C@@H]3C[C@H](C)C4=CC(=O)CC[C@]4(C)[C@H]3CC[C@@]21C | n

Now consider the entry below.
INPUT: How was CCOC1OC(=O)C[C@H]1NC(=O)[C@@H]1CCCN1C(=O)[C@@H](NC(=O)c1ccc(N)c(Cl)c1)C(C)(C)C (stereo partly drawn) classified in this test?
OUTPUT: y

----------
Procedure summary: qHTS profiling of the MIPE4 collection as inhibitors of Plasmodium falciparum (3D7) proliferation (AID 743344);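 also: scaled between DMSO vehicle wells and 0.29 µM artemisinin as full inhibition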
Setup conditions: P. falciparum 3D7 in erythrocytes, SYBR Green DNA fluorescence, 72 h; at 28.5 µM (top of the series) unless noted
Everything with parasite growth, % of DMSO control lower than 40% is rule not met; everything else, including exactly 40%, is rule met.

Solved entries (count: 5):
Cn1cc(C=C2C(=O)Nc3cccnc32)c2ccccc21 | rule met
CC1CCC(C(=O)N(c2cc(C#CC(C)(C)C)sc2C(=O)O)C2CCC(O)CC2)CC1 (stereo unspecified) | rule not met
Clc1ccc(C(c2ccc(Cl)cc2)n2cc[n+](CC(OCc3ccc(Cl)cc3Cl)c3ccc(Cl)cc3Cl)c2)cc1 (stereo unspecified) | rule not met
CC(C)OC(=O)CCCC=CC[C@@H]1[C@H](C=C[C@@H](O)COc2cccc(C(F)(F)F)c2)[C@H](O)C[C@@H]1O | rule not met
C[N+](C)(C)CC(=O)O | rule met

INPUT: Determine whether measured parasite growth, % of DMSO control meets or exceeds 40% for CC(C)n1cnc2c(NCCCCCCNC(=O)OC(C)(C)C)nc(NCCO)nc21
OUTPUT: rule not met

INPUT: Could you please find out whether CC(C)=CC[C@@H](O)C1=CC(=O)c2c(O)ccc(O)c2C1=O has parasite growth, % of DMSO control that meets 40% or exceeds it?
OUTPUT: rule not met

INPUT: Test whether the compound Cc1ccc(/C=N/NC(=O)c2ccccc2Oc2ccccc2)o1 records parasite growth, % of DMSO control of 40% or higher.
OUTPUT: rule met

INPUT: Does parasite growth, % of DMSO control meet or surpass 40% for N[C@@]1(C(=O)O)CS(=O)(=O)[C@H]2[C@H](C(=O)O)[C@H]21 ?
OUTPUT: rule met

INPUT: Record O=c1[nH]cnc2c1ncn2[C@H]1CC[C@@H](CO)O1 ; criterion: parasite growth, % of DMSO control no lower than 40%. Met?
OUTPUT: rule met

INPUT: State whether the measured parasite growth, % of DMSO control reaches 40%, counting equality as reaching it, for CC(=O)N(C)C1(c2ccccc2)CCN(CCC[C@]2(c3ccc(Cl)c(Cl)c3)CCCN(C(=O)c3ccccc3)C2)CC1
OUTPUT: rule not met
